Below, each entry is listed alongside its reported cell viability.
# Test system: NOMO1
# testMethodNotes: cell viability relative to DMSO control; higher = less cytotoxic
# particulars: RPMI 5 mM glucose + 10% FBS; 48 h; 0.0211 µM
Number only, in %; omit the unit.

Note to self: cell viability recorded for `CN1\C(=C(\O)C2=C(C=CC=C2)[S+]1([O-])=O)C(=O)NC3=CC=CC=N3` was 116

So for `N#Cc1ccnc(Nc2cc(C3CCN(C4COC4)CC3)cc(N3CCC(F)(F)C3)n2)c1` , the logged cell viability turned out to be 106

Sure, the documented cell viability for `CCC(=O)N[C@H]1CC[C@H](C(=O)N(C)c2ccc(-c3nc4ccccc4o3)cc2)C1` is 85.1

`CN1CCC[C@@H]1CCO[C@](C)(c1ccccc1)c1ccc(Cl)cc1` yielded cell viability of 110

The recorded cell viability for entry `COc1ccc(Nc2nccc(NCCO)n2)cc1` equals 83.5

Lab note: `COc1ccc([C@@H]2CC(=O)c3c(O)cc(O[C@@H]4O[C@H](CO[C@@H]5O[C@@H](C)[C@H](O)[C@@H](O)[C@H]5O)[C@@H](O)[C@H](O)[C@H]4O)cc3O2)cc1O` gave cell viability of 117

* * *

Form field: cell viability (one value per entry).
# Tested on: SEM cells
# testMethodNotes: cell viability relative to DMSO control; higher = less cytotoxic
# particulars: HPLM + 10% dialyzed FBS; 48 h; 0.00702 µM
All answers are understood in %, so give the number only.

Example entries begin here.
>>> print(df.to_string())
                                   compound  valuereported
0        CN(C)CC[C@H](c1ccc(Cl)cc1)c1ccccn1           79.4
1  O=C1Nc2ccc(I)cc2/C1=C/c1cc(Br)c(O)c(Br)c1            103
2     Cn1cc(/C=C2\C(=O)Nc3cccnc32)c2ccccc21            113

Please fill in: cell viability reported for `Nc1cc(C(F)(F)F)c(-c2cc(N3CCOCC3)nc(N3CCOCC3)n2)cn1` = 99

Summary for this compound, `O=C(Cc1ccc(-c2ccc(OCCN3CCOCC3)cc2)cn1)NCc1ccccc1` : cell viability is 106

`COc1ccc2c(c1)c(CC(=O)OCC(=O)O)c(C)n2C(=O)c1ccc(Cl)cc1` has a reported cell viability of 111

The compound listed as `Cc1cc(C(=O)N2CCN(c3cccc(Cl)c3)CC2)n(-c2ccccc2)n1` has a reported cell viability of 102

The measured cell viability associated with `Nc1nc(N)c2nc(-c3cccc(O)c3)c(-c3cccc(O)c3)nc2n1` reads 120

Reported cell viability for CC/1=C(/C(CC(=O)N1)C2=CC=C(C=C2)C(F)(F)F)C(=O)NC3=C(F)C=C4[NH]N=CC4=C3 (centres undefined) was 92.3

* * *

# Test system: SEM cells
# testMethodNotes: cell viability relative to DMSO control; higher = less cytotoxic
# particulars: RPMI 5 mM glucose + 10% dialyzed FBS; 48 h; 15.4 µM
Response field label takes fulfilled when cell viability is strictly below 40% and not fulfilled in all other cases.

compound	studySystem	assignedCategory
CNCc1ccc(-c2[nH]c3cc(F)cc4c3c2CCNC4=O)cc1	SEM cells	not fulfilled
Cc1cc(C(=O)N2CCN(c3cccc(Cl)c3)CC2)n(-c2ccccc2)n1	SEM cells	fulfilled
O=C\1N(N\C=C1[N]2C=CN=N2)C3=NC=NC(=C3)N4CCOCC4	SEM cells	fulfilled
C[C@]12CC[C@@H]3c4ccc(O)cc4CC[C@H]3[C@@H]1C[C@@H](O)[C@@H]2O	SEM cells	not fulfilled

Exercise: For this compound, is cell viability lower than 40%? `COc1ccc([C@@H]2CC(=O)c3c(O)cc(O[C@@H]4O[C@H](CO[C@@H]5O[C@@H](C)[C@H](O)[C@@H](O)[C@H]5O)[C@@H](O)[C@H](O)[C@H]4O)cc3O2)cc1O`
Solution: not fulfilled

Exercise: Given the entry `CCC\C1=C\C(=O)NC(=S)N1` , would its reported cell viability be below 40%?
Solution: not fulfilled

Exercise: Does `Nc1nnc(-c2cccc(Cl)c2Cl)c(N)n1` have cell viability strictly under 40%?
Solution: not fulfilled

Exercise: Consider the compound `COc1cccc([C@@H](C)NCCCc2ccccc2Cl)c1` . Is its cell viability strictly less than 40%?
Solution: not fulfilled

Exercise: Given the entry C=CC(=O)Nc1cccc(Nc2nc(NC3CCC(N(C)C)CC3)nc3c2ncn3C(C)C)c1 (stereo not given) , would its reported cell viability be below 40%?
Solution: fulfilled

Exercise: Please determine if `Cc1csc(NC(=O)c2sc3nc4c(c(C(F)(F)F)c3c2N)CCC4)n1` is below 40% in terms of cell viability.
Solution: not fulfilled

The reported numbers originate from the supplement of paper PMC11451515.
